System: M^pro of ten high-risk CoVs
Details: read-out: IC50 against ten high-risk CoVs
Reported Property: IC50

Qu. Suppose we examine the molecule Cn1cc2cc(/N=c3\[nH]c(=O)n(Cc4ccc[nH]c4=O)c(=O)n3Cc3cc(Cl)c(F)cc3Oc3ccc(C#N)s3)c(Cl)cc2n1 [Compound 25] ; what IC50 value has been reported?
Ans. < 0.6 µM

All figures here come from paper PMC12096674.
